TESTED_SYSTEM: T1, CD3 epsilon homodimer protein (UniProt P07766 23-126)
T1 construct: also called CD3 (CD3 epsilon)
T1 sequence (P07766 23-126): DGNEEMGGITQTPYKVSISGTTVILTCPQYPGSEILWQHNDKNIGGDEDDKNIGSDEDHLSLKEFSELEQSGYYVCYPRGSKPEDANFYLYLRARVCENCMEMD
ASSAY_EXPLANATION: SPR, antibody over immobilised CD3e homodimer;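 further: SPR at 25 °C with CD3 epsilon homodimer amine-coupled to a CM4 sensor chip and antibody flowed over as analyte in HBS-EP+ running buffer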
KD ratio to GLS3000 for assorted binders
// response body must contain only the number

BINDER | KD ratio to GLS3000
CE115HA000/GLS3000 S27eD (antibody, IgG1, name in Kabat numbering, V domains shown, one-arm IgG1) VH: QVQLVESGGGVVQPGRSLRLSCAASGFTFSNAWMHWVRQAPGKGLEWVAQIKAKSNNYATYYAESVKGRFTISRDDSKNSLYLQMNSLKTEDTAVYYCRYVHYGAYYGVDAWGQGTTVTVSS VL: DIVMTQSPLSLPVTPGEPASISCRSSQSLVHDNRNTYLHWYQQKPGQAPRLLIYKVSNRFSGVPDRFSGSGSGTDFTLKISRVEAEDVGVYYCGQGTQVPYTFGQGTKLEIK | 1.23

Note to self: KD ratio to GLS3000 recorded for CE115HA000/GLS3000 V94D (antibody, IgG1, name in Kabat numbering, V domains shown, one-arm IgG1) VH: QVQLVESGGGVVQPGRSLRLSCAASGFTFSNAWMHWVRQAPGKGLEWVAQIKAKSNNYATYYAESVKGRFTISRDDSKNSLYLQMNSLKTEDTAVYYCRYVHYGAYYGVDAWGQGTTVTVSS VL: DIVMTQSPLSLPVTPGEPASISCRSSQSLVHSNRNTYLHWYQQKPGQAPRLLIYKVSNRFSGVPDRFSGSGSGTDFTLKISRVEAEDVGVYYCGQGTQDPYTFGQGTKLEIK was 1.05
